TARGET ENTITY: T1, human ICOS (human, UniProt Q9Y6W8 21-199)
T1 sequence: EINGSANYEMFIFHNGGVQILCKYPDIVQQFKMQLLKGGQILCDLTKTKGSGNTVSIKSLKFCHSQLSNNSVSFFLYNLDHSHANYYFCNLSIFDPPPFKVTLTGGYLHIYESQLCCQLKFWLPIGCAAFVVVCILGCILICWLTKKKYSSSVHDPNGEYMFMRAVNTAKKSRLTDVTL
PROTOCOL NOTES: cell-based or functional assay
RESULT TYPE: EC50 of activation of Jurkat-NFAT reporter cell line (nM)
# unit: nM | format: bare number

Completed entries (count: 4):
Molecule 33 (ICOS H1138_1) (antibody, human IgG1, kappa, L234A L235A, V domains shown, Human IgG format) VH: EVQLLESGGGLVQPGGSLRLSCAASGFDLSSYYYMSWVRQAPGKGLEWVSSIYADIYGGTTHYASWAKGRFTISKTSSKTTLYLQMNSLRAEDTAVYFCAREDGSRYGGSGYYNLWGQGTLVTVSS VL: DIQMTQSPSSLSASVGDRVTITCRASQNIYSNLAWYQQKPGQPPKLLIYAASYLTSGVPSRFSGSGSGTDFTLTISSLQPEDFATYYCQQGHTTDNIDNAFGGGTKVEIKR; 41.4
Molecule 35 (ICOS H1138_3) (antibody, human IgG1, kappa, L234A L235A, V domains shown, Human IgG format) VH: EVQLLESGGGLVQPGGSLRLSCAASGFDLSSYYYMSWVRQAPGKGLEWVSSIYADIYGGTTHYASWAKGRFTISKTSSTTLYLQMNSLRAEDTAVYFCAREDGSRYGGSGYYNLWGQGTLVTVSS VL: AIQMTQSPSSLSASVGDRVTITCRASQNIYSNLAWYQQKPGKPPKLLIYAASYLTSGVSSRFSGSGSGTDFTLTISSLQPEDFATYYCQQGHTTDNIDNAFGGGTKVEIKR; 99.4
Molecule 30 (ICOS H1143v2_2) (antibody, human IgG1, kappa, L234A L235A, V domains shown, Human IgG format) VH: EVQLLESGGGLVQPGGSLRLSCAASGFDFSSAYDMSWVRQAPGKGLEWVSVIYYGDGITYYADSVKGRFTISKTSSKTTLYLQMNSLRAEDTAVYFCARGAFLGSSYYLSLWGQGTLVTVSS VL: DIQMTQSPSSLSASVGDRVTITCRASENIYNWLAWYQQKPGKAPKLLIYDASKLASGVPSRFSGSGSGTDFTLTISSLQPEDFATYYCQQAYTYGNIDNAFGGGTKVEIKR; 29.4
Molecule 32 (ICOS 1138) (antibody, human IgG1, kappa, L234A L235A, V domains shown, Human IgG format; also called parental antibody of Molecules 33-35) VH: QSLEESGGDLVKPGASLTLTCTASGFDLSSYYYMSWVRQAPGKGLEWIASIYADIYGGTTHYASWAKGRFTISKTSSTTVTLQMTSLTAADTATYFCAREDGSRYGGSGYYNLWGPGTLVTVSS VL: ALVMTQTPSSVSAAVGGTVTINCQASQNIYSNLAWYQQKPGQPPKLLIYAASYLTSGVSSRFKGSGAGTQFTLTISGVESADAATYYCQQGHTTDNIDNAFGGGTEVVVKR; 38.7

Form: binder = Molecule 28 (ICOS 1143v2) (antibody, human IgG1, kappa, L234A L235A, V domains shown, Human IgG format; also called parent antibody of Molecules 29-31) VH: QSLEESGGDLVKPGASLTLTCKASGFDFSSAYDMSWVRQAPGKGLEWIGVIYYGDGITYYATSVKGRFTISKTSSTTVPLQMTSLTAADTATYFCARGAFLGSSYYLSLWGQGTLVTVSS VL: AIDMTQTPASVEAAVGGTVTINCQASENIYNWLAWYQQKPGQPPKLLIYDASKLASGVPSRFSASGSGTQFTLTISAVESADAATYYCQQAYTYGNIDNAFGGGTEVVVSR ; EC50 of activation of Jurkat-NFAT reporter cell line = 28

Form: binder = Molecule 29 (ICOS H1143v2_1) (antibody, human IgG1, kappa, L234A L235A, V domains shown, Human IgG format) VH: EVQLLESGGGLVQPGGSLRLSCAASGFDFSSAYDMSWVRQAPGKGLEWVSVIYYGDGITYYADSVKGRFTISRDNSKNTLYLQMNSLRAEDTAVYFCARGAFLGSSYYLSLWGQGTLVTVSS VL: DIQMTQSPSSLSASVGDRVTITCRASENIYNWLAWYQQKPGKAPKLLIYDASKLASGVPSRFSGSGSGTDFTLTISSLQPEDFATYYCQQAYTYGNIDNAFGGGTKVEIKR ; EC50 of activation of Jurkat-NFAT reporter cell line = 27.6

Form: binder = Molecule 34 (ICOS H1138_2) (antibody, human IgG1, kappa, L234A L235A, V domains shown, Human IgG format) VH: EVQLLESGGGLVQPGGSLRLSCAASGFDLSSYYYMSWVRQAPGKGLEWVSSIYADIYGGTTHYASWAKGRFTISRDNSKNTLYLQMNSLRAEDTAVYFCAREDGSRYGGSGYYNLWGQGTLVTVSS VL: AIQMTQSPSSLSASVGDRVTITCRASQNIYSNLAWYQQKPGKPPKLLIYAASYLTSGVSSRFSGSGSGTDFTLTISSLQPEDFATYYCQQGHTTDNIDNAFGGGTKVEIKR ; EC50 of activation of Jurkat-NFAT reporter cell line = 34

Form: binder = Molecule 31 (ICOS H1143v2_3) (antibody, human IgG1, kappa, L234A L235A, V domains shown, Human IgG format) VH: EVQLLESGGGLVQPGGSLRLSCAASGFDFSSAYDMSWVRQAPGKGLEWIGVIYYGDGITYYADSVKGRFTISRDNSNTLYLQMNSLRAEDTAVYFCARGAFLGSSYYLSLWGQGTLVTVSS VL: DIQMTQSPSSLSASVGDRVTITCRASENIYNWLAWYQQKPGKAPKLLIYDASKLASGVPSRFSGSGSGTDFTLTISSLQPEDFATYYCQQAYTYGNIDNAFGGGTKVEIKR ; EC50 of activation of Jurkat-NFAT reporter cell line = 23.2
